# System: Staphylococcus sp.
# EXPERIMENTAL_DETAILS: in vitro antibacterial evaluation, MIC by broth dilution
# Assay type: cell-based
# PARTICULARS: strain ATCC 29213; broth dilution, 18 hours at 35° C.
READOUT_NAME: MIC Staphylococcus aureus (ATCC 29213)

For orientation, consider the following solved cases.
INSERT INTO measurements (compound, system_under_test, recorded_result) VALUES
  ('CC(c1ccccc1)C1NC(=O)CNC(=O)C(CO)NC(=O)C(C(O)C2CN(Cc3ccc(C(=O)O)cc3)C(=N)N2C2OC(CO)C(O)C(O)C2O)NC(=O)C(C(O)C2CNC(=N)N2)NC(=O)C(Cc2ccc(OC3OC(CO)C(OC4OC(CO)C(O)C(O)C4O)C(O)C3O)cc2)NC1=O (stereo not shown)', 'Staphylococcus sp.', '>128 µg/mL'),
  ('CCCC(C)C1OCC2OC(OC3C(CO)OC(Oc4ccc(CC5NC(=O)C(C(C)c6ccc(Cl)cc6)NC(=O)CNC(=O)C(CO)NC(=O)C(C(O)C6CNC(=N)N6C6OC(CO)C(O)C(O)C6O)NC(=O)C(C(O)C6CNC(=N)N6)NC5=O)cc4)C(O)C3O)C(O)C(O)C2O1 (stereo not shown)', 'Staphylococcus sp.', '0.5 µg/mL'),
  ('N=C1NCC(C(O)C2NC(=O)C(Cc3ccc(OC4OC(CO)C(OC5OC6COC(CCc7ccccc7)OC6C(O)C5O)C(O)C4O)cc3)NC(=O)C(CC3CCCCC3)NC(=O)CNC(=O)C(CO)NC(=O)C(C(O)C3CNC(=N)N3C3OC(CO)C(O)C(O)C3O)NC2=O)N1 (stereo not shown)', 'Staphylococcus sp.', '0.5 µg/mL'),
  ('CC(c1ccccc1)C1NC(=O)CNC(=O)C(CO)NC(=O)C(C(O)C2CNC(=N)N2C2OC(CO)C(O)C(O)C2O)NC(=O)C(C(O)C2CNC(=N)N2)NC(=O)C(Cc2ccc(OC3OC(CO)C(OC4OC5COC(Cc6ccccc6)OC5C(O)C4O)C(O)C3O)cc2)NC1=O (stereo not shown)', 'Staphylococcus sp.', '1 to 2 µg/mL'),
  ('CCCCCCC(=O)OCC1OC(Oc2ccc(CC3NC(=O)C(C(C)c4ccccc4)NC(=O)CNC(=O)C(CO)NC(=O)C(C(O)C4CNC(=N)N4C4OC(CO)C(O)C(O)C4O)NC(=O)C(C(O)C4CNC(=N)N4)NC3=O)cc2)C(O)C(O)C1OC1OC(CO)C(O)C(O)C1O (stereo not shown) [Example 97a]', 'Staphylococcus sp.', '1 µg/mL'),
  ('CC(c1ccccc1)C1NC(=O)CNC(=O)C(CO)NC(=O)C(C(O)C2CNC(=N)N2C2OC(CO)C(O)C(O)C2O)NC(=O)C(C(O)C2CNC(=N)N2)NC(=O)C(Cc2ccc(OC3OC(COC(=O)CCC4CCCC4)C(OC4OC(CO)C(O)C(O)C4O)C(O)C3O)cc2)NC1=O (stereo not shown) [Example 100b]', 'Staphylococcus sp.', '2 µg/mL');

# CC(c1ccccc1)C1NC(=O)CNC(=O)C(CO)NC(=O)C(C(O)C2CNC(=N)N2C2OC(CO)C(O)C(O)C2O)NC(=O)C(C(O)C2CNC(=N)N2)NC(=O)C(Cc2ccc(OC3OC(COC(=O)C(c4ccccc4)c4ccccc4)C(OC4OC(CO)C(O)C(O)C4O)C(O)C3O)cc2)NC1=O (stereo not shown) [Example 96b] with Staphylococcus sp.: MIC Staphylococcus aureus (ATCC 29213) is 1 µg/mL

Just for reference, patent US6914045B2 is where these values come from.
